Tested on: NCI-H226 lung
protocol.summary: NCI-60 one-dose screen, 48 h (100 = growth as untreated, 0 = no growth, -100 = all killed)
conditions: 10 µM unless noted
About 83,000 compounds went through this panel and 20% of them were active in at least one assay; those are over-represented in the sample as a whole.
assay.readout: growth (%)
Supply the numeric figure in %, leaving out any unit text.

API: value(readout=growth, system=NCI-H226 lung) for record `NC(=O)c1ncn2c(=O)n(CCF)nnc12`
68.5

Query the reported growth for NCI-H226 lung; item: `O=C(CSc1nc2ccccc2c(=O)n1-c1ccccc1)N/N=C/c1ccc(Oc2ccc(Cl)cc2)cc1`
72.1

Kindly state the measured growth obtained for `O=C(/C=C/c1ccc(Cl)c(Cl)c1)Nc1ncc(Cc2ccc(Cl)c(Cl)c2)s1` with NCI-H226 lung.
70.7

* * *

Test system: HOP-62 NSCLC
protocol.summary: NCI-60 one-dose screen, 48 h
conditions: 10 µM unless noted
Description: Growth inhibition of the HOP-62 human Non-Small Cell Lung tumor cell line is measured as a screen for anti-cancer activity. Cells are grown in 96 well plates and exposed to the test compound for 48 hours. Compounds are tested at a single concentration, which is 10^-5 M for most compounds. The reported endpoint is percent growth (GI% or GIPRCNT), where numbers from 0 - 100% represent growth inhibition, and numbers from -100% - 0 represent cell death. […]
This is part of a sample that, as a whole, favours compounds with a hit. Of some 83,000 tested, about 20% had one in any assay. Activity calls are given as the source filed them. Rule for the calls: active = growth percent below 10; inactive = the rest.
Return exactly one item of active, inactive

{"compound": "CCc1cccc2c3c(sc12)C(c1ccc(F)cc1)C(C#N)=C(/N=C/c1ccc(Cl)cc1)O3 (stereo not drawn)", "assigned.category": "inactive"}

Recorded call for `COc1ccc(C(=NNS(=O)(=O)c2ccc(C)cc2)c2ccccc2)cc1OC` ?
inactive

Kindly provide the recorded test outcome for the following compound: `CN(C)S(=O)(=O)c1ccc(-c2nc(C(Cl)Cl)nc3cc(-c4ccc(F)cc4)nn23)cc1`
active

* * *

Tested on: SK-OV-3 ovarian
protocol.summary: NCI-60 one-dose screen, 48 h
conditions: 10 µM unless noted
Experimental: Growth inhibition of the SK-OV-3 human tumor cell line is measured as a screen for anti-cancer activity. Cells are grown in 96 well plates and exposed to the test compound for 48 hours. Compounds are tested at a single concentration, which is 10^-5 M for most compounds. The reported endpoint is percent growth (GI% or GIPRCNT), where numbers from 0 - 100% represent growth inhibition, and numbers from -100% - 0 represent cell death. For example, a value of 40 represents 60% growth inhibition. […]
About 83,000 compounds went through this panel and 20% of them were active in at least one assay; those are over-represented in the sample as a whole. The source made the active and inactive calls. Rule for the calls: active = growth percent below 10; inactive = the rest.
Respond only with the outcome that fits, drawn from active, inactive

Completed entries (count: 2):
{"cpd.smiles": "COc1ccc(-c2cc(-c3ccc(N4CCOCC4)cc3)n3c(n2)nc2ccccc23)cc1OC", "assigned.category": "inactive"}
{"cpd.smiles": "Cc1cc(C)cc(NC2=C(Cl)C(=O)c3nc(C)ccc3C2=O)c1", "assigned.category": "inactive"}

// param item: `CCOC(=O)C(=O)Nc1ccc2c(ccn2C(=O)c2cccc(F)c2)c1` ; yields the recorded call
inactive

// param item: `O=C(Nc1ccccc1)Nc1nc2ccc([N+](=O)[O-])cc2[nH]1` ; yields the recorded call
inactive

For `Cc1[nH]c(C(=O)Nc2ccc(C(=O)NCC3CCNCC3)cc2OC(C)C)c(Cl)c1Cl` , which call appears in the assay record?
inactive

* * *

System: K-562 leukemia
protocol.summary: NCI-60 one-dose screen, 48 h (100 = growth as untreated, 0 = no growth, -100 = all killed)
conditions: 10 µM unless noted
This is part of a sample that, as a whole, favours compounds with a hit. Of some 83,000 tested, about 20% had one in any assay.
Label y when growth is at or above 10%; anything below gets n.

Some solved entries appear below for comparison.
{"cpd.smiles": "COc1cc2oc(-c3cccc(NC(=O)[C@@H](N)C(C)C)c3)cc(=O)c2c(OC)c1OC", "assigned.category": "y"}
{"cpd.smiles": "COC(=O)N1CCN(CCNCc2ccc(NC(=O)c3ccc(C)c(C#Cc4cnc5cccnn45)c3)cc2C(F)(F)F)CC1", "assigned.category": "n"}
{"cpd.smiles": "COc1cc2cc(Oc3ccc(NC(=O)Nc4ccc(F)c(C(F)(F)F)c4)cc3)c(C)nc2cc1OCCN(C)C", "assigned.category": "n"}
{"cpd.smiles": "Cc1ccc(C(=O)CSc2nc3ccccc3c(=O)n2C)cc1", "assigned.category": "y"}
{"cpd.smiles": "COc1ccc2[nH]cc(-c3nc(N)nnc3-c3cn(C)c4ccc(Br)cc34)c2c1", "assigned.category": "n"}
{"cpd.smiles": "NC(N)=NS(=O)(=O)c1ccc(N=Nc2c(N)nn(-c3ccc([N+](=O)[O-])cc3[N+](=O)[O-])c2N)cc1", "assigned.category": "y"}
{"cpd.smiles": "CCCCc1nc2c(N)nc3ccccc3c2n1Cc1cccc(CN)c1", "assigned.category": "n"}
{"cpd.smiles": "Brc1cccc(-c2cc(-c3cnc4c(c3)OCCO4)n[nH]2)c1", "assigned.category": "y"}

As a next step, examine the compound that follows.
Identify whether the reported growth of the following compound is 10% or greater: `CC1(C)CC[C@]23CC[C@]4(C)[C@H](CC[C@@H]5[C@@]6(C)CC[C@H](NCO)C(C)(C)[C@@H]6CC[C@]54C)[C@H]2[C@H]1OC3`
n

* * *

System: LOX IMVI melanoma
protocol.summary: NCI-60 one-dose screen, 48 h (100 = growth as untreated, 0 = no growth, -100 = all killed)
conditions: 10 µM unless noted
This is part of a sample that, as a whole, favours compounds with a hit. Of some 83,000 tested, about 20% had one in any assay.
assay.readout: growth (%)
// return numeric value only (unit: %, not printed)

Past entries and their recorded results:
{"compound": "NC1CC2(CCN(c3cnc(C(=O)Nc4cc(F)cc5cccnc45)cn3)CC2)C1", "assay.readout": "growth", "uom": "%", "value.reported": -17}
{"compound": "Cc1c(C(=O)/C=C/c2ccc(Cl)cc2)nnn1-c1ccc2oc(=O)ccc2c1", "assay.readout": "growth", "uom": "%", "value.reported": 80.7}
{"compound": "CCOC(=O)c1ccccc1NC1=C(Cl)C(=O)c2nc(C)ccc2C1=O", "assay.readout": "growth", "uom": "%", "value.reported": 98.7}
{"compound": "CCOC(=O)c1cccc(NC2=C(Cl)C(=O)C(C)=C(C)C2=O)c1", "assay.readout": "growth", "uom": "%", "value.reported": 91.9}
{"compound": "CC(C)(C)Nc1nc2c(OCCc3ccccc3)cccn2c1-c1cccc(Oc2ccccc2)c1", "assay.readout": "growth", "uom": "%", "value.reported": 3.93}
{"compound": "CC1=C(SCC(=O)OCCCCCC(C)C)C(=O)c2ccccc2C1=O", "assay.readout": "growth", "uom": "%", "value.reported": 93.2}

Which growth is reported for this compound? `Cc1ccc(C(=O)Nc2ccc(CNCCN3CCOCC3)c(C(F)(F)F)c2)cc1C#Cc1cnc2cccnn12`
-85.6

Give its growth value. Item: `CCOC(=O)Nc1ccc2c(ccn2C(=O)c2cccc(F)c2)c1`
49.4

What value of growth has been reported for the following compound? `O=C(/C=C/c1ccccc1Cl)Nc1ncc(Cc2cc(Cl)ccc2Cl)s1`
35

Recorded growth for `Cc1csc(/N=C(N)/N=C(\N)c2cccc(C#N)c2)n1` , please?
78.1

What does the record list as growth for `C(=N\Nc1nc(N/N=C/c2ccc3c(c2)OCO3)nc(N2CCCCC2)n1)/c1ccc2c(c1)OCO2` ?
47.9

Param item = `CC(=O)Nc1ccccc1-c1nc2ccccc2s1` ; retrieve measured growth.
97.3

# query: growth of entry `Cc1ccc2c(n1)C(=O)C(Cl)=C(Nc1ccc(C)c(C)c1)C2=O`
0.982

Fill blank: measured growth of the compound `Nc1nc(=O)n([C@H]2C[C@H](O)[C@@H](CO)O2)cc1C=O` is ____.
106

Look up growth for this compound: `C#C[C@]1(O)CC[C@H]2[C@@H]3CC=C4c5sc(Nc6cccc(F)c6)nc5CC[C@]4(C)[C@H]3CC[C@@]21C`
-57.6

Tell me the measured growth of `O=S(=O)(Oc1ccc(-c2cn3ccoc3n2)cc1)c1cccc(C(F)(F)F)c1` , please.
94.7

Given the entry COc1cccc2c1C=CC1(O2)Oc2cccc(OC)c2C=C1C (configuration not stated) , report its measured growth.
24.5

Which growth is reported for this compound? `NS(=O)(=O)c1ccc(Nc2nc(N/N=C/c3ccc4c(c3)OCO4)nc(Nc3ccccc3)n2)cc1`
26.7

What value of growth has been reported for the following compound? `C=C(C)[C@@H]1CC[C@]2(COCCCNCCCN)CC[C@]3(C)[C@H](CC[C@@H]4[C@@]5(C)CC[C@H](O)C(C)(C)[C@@H]5CC[C@]43C)[C@@H]12`
-80.7

For `O=C(/C=C/c1cccc(C(F)(F)F)c1)Nc1cccc(C(F)(F)F)c1` , what is its reported growth?
28.4
